Experiment: Toxicity liver stage against HepG2, at 10uM
Type: cell-based
Parameters: test concentration 10 uM, cell line HepG2-A16-CD81EGFP
Conditions: human, HepG2-A16-CD81EGFP cells; read-out: INHIBITION
readout-label: cytotoxicity at 10 µM
The reply should consist of the numeric value with the unit placed after it.

Below, each entry is followed by its recorded cytotoxicity at 10 µM result.
Q: # query: cytotoxicity at 10 µM of entry `CC(C)(C)NC[C@@H]1CCC[C@@H]2CN(Cc3csnn3)C[C@@H]21`
Result: -134%

Q: # query: cytotoxicity at 10 µM of entry `CCS(=O)(=O)N1CCc2c(cccc2NCc2nc(C)c(C)o2)C1`
Result: -46.9%

Q: # query: cytotoxicity at 10 µM of entry `CN1CCCN(c2ccc(F)cc2CNC(=O)c2ccsc2)CC1`
Result: -12.3%

Next:
Q: # query: cytotoxicity at 10 µM of entry `CN(C)[C@@H]1CN(Cc2cnn(C)c2)[C@@H]2COC[C@H]12`
Result: 7.37%

Q: # query: cytotoxicity at 10 µM of entry `C=C/C=c1\c(=C/C)oc2c(NCc3ccccc3)nc(C)nc12`
Result: 24.8%

Q: # query: cytotoxicity at 10 µM of entry `CN(C)C(=O)c1nn(C)c2c1CN(Cc1ccoc1)C2`
Result: -6.28%
